LD50 overview
- Test name: Toxicity in ip dosed NMRI mouse assessed as clonic and tonic convulsions
- Assay type: organism-based
- Run parameters: in vivo
# output: bare number, implied unit mg/kg

Example compounds with recorded LD50:
| Chemical structure | Measurement unit | LD50 |
| --- | --- | --- |
| C/C=C1\[C@@H]2C[C@H]3c4c(c5cc(O)ccc5n4[C@@H](C2)O[C@@H]1OC)CCN3C | mg/kg | 90 |
| C/C=C1\[C@@H]2C[C@H]3c4c(c5cc(O)ccc5n4[C@@H](C2)O[C@H]1OC)CCN3C | mg/kg | 84 |

# LD50 of C/C=C(/C=O)[C@H]1C[C@H](OC)n2c3c(c4cc(O)ccc42)CCN(C)[C@H]3C1 = 75

====

Activity overview
- Test system: Mus musculus
- Test name: Toxicity in ip dosed NMRI mouse assessed as clonic and tonic convulsions assessed as cunvulsive dose
- Type: organism-based
- Run parameters: in vivo

# Activity of C/C=C(/C=O)[C@H]1C[C@H](OC)n2c3c(c4cc(O)ccc42)CCN(C)[C@H]3C1 = 75 mg/kg

# Activity of C/C=C(/C=O)[C@@H]1C[C@H]2c3c(c4ccccc4n3[C@@H](O)C1)CCN2C [AKAGERINE] = 50 mg/kg

# Activity of C/C=C1\[C@@H]2C[C@H]3c4c(c5cc(O)ccc5n4[C@@H](C2)O[C@H]1OC)CCN3C = 84 mg/kg

# Activity of C/C=C(/C=O)[C@H]1C[C@H](OC)n2c3c(c4ccccc42)CCN(C)[C@H]3C1 = 45.3 mg/kg

# Activity of C/C=C1\[C@@H]2C[C@H]3c4c(c5cc(O)ccc5n4[C@@H](C2)O[C@@H]1OC)CCN3C = 80 mg/kg

Data provenance: ChEMBL document CHEMBL1151337
